Taken from paper PMC11150925.

kcat: recorded values
Substrate: [H][C@]12C[C@]([H])(OO1)[C@H](C/C=C\CCCC(=O)O)[C@H]2/C=C/[C@@H](O)CCCCC
Assay: purified protein
Details: PGD2 synthase reaction; 2 mM GSH fixed (saturating); PGH2 0.08-40 μM
Write the number in s⁻¹ without appending the unit.

Exercise: // kcat lookup, key: rCsGST-σ3 (Clonorchis sinensis) (protein) MSGEKYKLYYFPFRARGEVIRMVLHAAGVPFDDERIPMDDWPKRKSEIPGGRMPVLQVIDPDKPDTPKNFVEGMAIARMLAKRFDLMDDTEEGYYNTERMIGECEDVFKEFRSVFLSPADKKEELLKEAMETSIPKQLDLISKSLSESAGKFVAGCKVTLGDLCLLACLDHVDKSDPEFLKDKYPKLLEWREEVLKEKPKLADYIKSRPDTPF
Key: 90.7

---
Exercise: // kcat lookup, key: rCsGST-μ1 (Clonorchis sinensis) (protein) MAPVLGYWKIRGLAQPIRLLLEYVGDSYEEHSYGRCDGEKWQNDKHNLGLELPNLPYYKDGNFSLTQSLAILRYIADKHNMIGNTPVERAKISMIEGGLVDLRAGVSRIAYQETFVCIVSTFCLSHTSQEQLKVPYLQQLPSTLRMWSQFLGNNSYLHGSTPTHLDFMFYEALDVIRYLDPTSVEAFPNLMQFIHRIEALPNIKAFMESDRFIKWPLNGWSAYFGGGDAPPK
Key: 12.5

Exercise: // kcat lookup, key: rCsPGDS1 (Clonorchis sinensis) (protein) MSQYKLTYFNLRGRAEPIRMVLIISGTPFEDCRIEVSDWPSKKSTIPGGKLPILEVTSPCGKKTLMTESMATARYLAKQHNLMGATDEDYYKIEKTIGECGDLHDLVYKIARAPDAEKPKLIEELKKLENAPRLLNLMSETLKSNPSGFVAGEKVSLGDIALLCTLDQFESVYPGFLKENYPIFANHREHIMELQPKLAEHIKTRPTTIV
Key: 90.6

Exercise: // kcat lookup, key: rCsGST-σ1 (Clonorchis sinensis) (protein) MADEHYTLFYFQFRGRAEAIRMILHANGVHFKDERFTMNEWPERRNQIPGSRVPLLQVKKNKTHEVANYVESMAIARMLAKRFHMMGDSEEEYYRVERMIGQCADLDKEFYTAFFAAADQKEEMLKKSMREAVPKMLDLISKSISESGGKFAAGDKVTLGDICLLTSMDHVRKHDPEFLGKHYPKLLVLEQEVLKAKPKLAEYIRTRPETPL
Key: 451
